Answer each item with its documented half-life at 1 μM.
# assay-comment: in vitro
# test-parameters: human, microsomes, pH 7.4, t1/2 human

May I ask what half-life at 1 μM has been recorded for [2H]C1([2H])CN(S(C)(=O)=O)CC([2H])([2H])C1Nc1ncc2ccc(=O)n([C@@H]3CCC[C@@]3(C)O)c2n1 ? 9.62 h

May I ask what half-life at 1 μM has been recorded for [2H]C([2H])([2H])S(=O)(=O)N1CCC(Nc2ncc3ccc(=O)n([C@@H]4CCC[C@@]4(C)O)c3n2)CC1 ? 5.77 h

May I ask what half-life at 1 μM has been recorded for C[C@@]1(O)CCC[C@H]1n1c(=O)c(C(F)F)cc2cnc(NC3CCN(S(C)(=O)=O)CC3)nc21 [Comp. 5, reference compound] ? 33.3 h

May I ask what half-life at 1 μM has been recorded for [2H]C(F)(F)c1cc2cnc(NC3CCN(S(C)(=O)=O)CC3)nc2n([C@@H]2CCC[C@@]2(C)O)c1=O ? 14.4 h
